Biological target: Insulin receptor (Homo sapiens) (UniProt P06213)
Sequence (P06213 28-758 limits assumed): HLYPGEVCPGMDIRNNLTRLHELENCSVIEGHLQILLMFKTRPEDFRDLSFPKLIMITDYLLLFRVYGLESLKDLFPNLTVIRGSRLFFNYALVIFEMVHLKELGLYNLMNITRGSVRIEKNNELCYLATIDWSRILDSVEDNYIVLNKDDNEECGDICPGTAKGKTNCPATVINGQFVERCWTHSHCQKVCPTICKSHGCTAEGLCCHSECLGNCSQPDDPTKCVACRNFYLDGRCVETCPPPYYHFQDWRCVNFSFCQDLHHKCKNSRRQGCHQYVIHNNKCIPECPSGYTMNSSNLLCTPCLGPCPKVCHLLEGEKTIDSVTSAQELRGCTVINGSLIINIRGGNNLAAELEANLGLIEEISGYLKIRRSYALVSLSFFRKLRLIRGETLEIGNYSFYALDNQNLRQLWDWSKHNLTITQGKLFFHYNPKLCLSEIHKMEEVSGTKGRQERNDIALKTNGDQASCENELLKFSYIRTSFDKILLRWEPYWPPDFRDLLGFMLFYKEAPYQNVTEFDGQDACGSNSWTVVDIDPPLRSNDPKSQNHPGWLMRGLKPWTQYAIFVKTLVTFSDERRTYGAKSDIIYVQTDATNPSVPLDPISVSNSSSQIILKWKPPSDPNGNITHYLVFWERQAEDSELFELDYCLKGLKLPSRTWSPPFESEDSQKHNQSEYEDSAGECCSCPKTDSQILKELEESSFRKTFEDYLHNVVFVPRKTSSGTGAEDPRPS
Sequence (P06213 763-1382 limits assumed): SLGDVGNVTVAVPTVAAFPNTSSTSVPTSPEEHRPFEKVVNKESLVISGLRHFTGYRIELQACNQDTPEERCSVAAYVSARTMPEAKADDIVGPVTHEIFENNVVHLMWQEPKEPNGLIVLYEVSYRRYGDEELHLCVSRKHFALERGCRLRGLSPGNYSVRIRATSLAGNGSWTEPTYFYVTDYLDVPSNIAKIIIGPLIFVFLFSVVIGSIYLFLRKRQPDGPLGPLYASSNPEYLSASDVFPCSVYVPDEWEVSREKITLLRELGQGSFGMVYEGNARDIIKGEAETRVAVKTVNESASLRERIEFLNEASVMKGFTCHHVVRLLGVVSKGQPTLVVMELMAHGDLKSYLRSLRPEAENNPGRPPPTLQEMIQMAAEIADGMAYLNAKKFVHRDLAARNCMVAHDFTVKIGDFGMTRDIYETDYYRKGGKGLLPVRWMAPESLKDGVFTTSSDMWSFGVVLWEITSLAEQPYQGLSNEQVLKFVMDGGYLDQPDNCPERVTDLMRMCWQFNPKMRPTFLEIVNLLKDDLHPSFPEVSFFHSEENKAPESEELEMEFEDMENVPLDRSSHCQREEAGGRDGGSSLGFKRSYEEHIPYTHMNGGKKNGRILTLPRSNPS
Conditions: at 1 µM
recorded-endpoint: residual activity (%)

INSERT INTO assay_data (mol_smiles, recorded_endpoint, measurement) VALUES
  ('CC#CC(=O)Nc1cc2c(Nc3ccc(F)c(Cl)c3)ncnc2cn1', 'residual activity', 103),
  ('CCN(CC)CCCCN1c2ccccc2Oc2ccc(Cl)cc21', 'residual activity', 102),
  ('Cc1ccc(NC2=CC(=O)c3sc(C)nc3C2=O)cc1', 'residual activity', 102),
  ('COc1cc2ncnc(N3CCN(C(=O)Nc4ccc(Oc5ccccc5)cc4)CC3)c2cc1OC', 'residual activity', 98),
  ('Nc1ccc2ncnc(NCCc3ccc(Oc4ccccc4)cc3)c2c1', 'residual activity', 101);
